B1: DNA mismatch repair protein Mlh1 (Homo sapiens), P40692 (parent)
chain: MSFVAGVIRRLDETVVNRIAAGEVIQRPANAIKEMIENCLDAKSTSIQVIVKEGGLKLIQIQDNGTGIRKEDLDIVCERFTTSKLQSFEDLASISTYGFRGEALASISHVAHVTITTKTADGKCAYRASYSDGKLKAPPKPCAGNQGTQITVEDLFYNIATRRKALKNPSEEYGKILEVVGRYSVHNAGISFSVKKQGETVADVRTLPNASTVDNIRSIFGNAVSRELIEIGCEDKTLAFKMNGYISNANYSVKKCIFLLFINHRLVESTSLRKAIETVYAAYLPKNTHPFLYLSLEISPQNVDVNVHPTKHEVHFLHEESILERVQQHIESKLLGSNSSRMYFTQTLLPGLAGPSGEMVKSTTSLTSSSTSGSSDKVYAHQMVRTDSREQKLDAFLQPLSKPLSSQPQAIVTEDKTDISSGRARQQDEEMLELPAPAEVAAKNQSLEGDTTKGTSEMSEKRGPTSSNPRKRHREDSDVEMVEDDSRKEMTAACTPRRRIINLTSVLSLQEEINEQGHEVLREMLHNHSFVGCVNPQWALAQHQTKLYLLNTTKLSEELFYQILIYDFANFGVLRLSEPAPLFDLAMLALDSPESGWTEEDGPKEGLAEYIVEFLKKKAEMLADYFSLEIDEEGNLIGLPLLIDNYVPPLEGLPIFILRLATEVNWDEEKECFESLSKECAMFYSIRKQYISEESTLSGQQSEVPGSIPNSWKWTVEHIVYKALRSHILPPKHFTEDGNILQLANLPDLYKVFERC

variants of: B1; conditions: with exo1_human EXO1, Q9UQ84

{"VARIANT_CODE": "R217C", "effect of a mutation on the interaction": "with no effect"}
{"VARIANT_CODE": "I32V", "effect of a mutation on the interaction": "with no effect"}
